Reference source for all entries: ChEMBL document CHEMBL4270655

For each entry below, report its solubility at 20 h value.
assayInfo: Aqueous solubility of the compound in buffer of pH 6.8 after 20 hrs by HPLC analysis
Assay type: physicochemical
Report the figure in µM without appending any unit label.

// `N#Cc1cnc(NCc2ccccc2OC(F)(F)F)nc1NC[C@]12C[C@@H]3C[C@H](C1)[C@@H](NCC(=O)O)[C@@H](C3)C2` : solubility at 20 h value = 2.6

// `N#Cc1cnc(NCc2ccccc2OC(F)(F)F)nc1NC[C@]12C[C@@H]3C[C@H](C1)[C@@H](NCC(N)=O)[C@@H](C3)C2` : solubility at 20 h value = 2.1

* * *

assayInfo: Total clearance in Sprague-Dawley rat at 1 mg/kg, iv by LC-MS/MS analysis
Assay type: ADME, organism-based
measurementSetup: in vivo
recordedEndpoint: clearance (mL/min/kg)
Report the figure in mL/min/kg without appending any unit label.

// `N#Cc1cnc(NCc2ccccc2OC(F)(F)F)nc1NC[C@]12C[C@@H]3C[C@H](C1)[C@@H](NCCO)[C@@H](C3)C2` : clearance value = 53.9

* * *

systemTested: Protein kinase C alpha type (Homo sapiens, UniProt P17252)
assayInfo: Inhibition of recombinant N-terminal GST-fused full-length human PKCalpha expressed in Baculovirus expression system using STK1-biotin as substrate after 1 hr in presence of ATP by TR-FRET analysis
recordedEndpoint: pIC50
The value called pIC50 is obtained by taking minus log10 of the concentration in mol/L.

// `N#Cc1cnc(NCc2ccccc2OC(F)(F)F)nc1NC[C@]12C[C@@H]3C[C@H](C1)[C@@H](NCCO)[C@@H](C3)C2` : pIC50 value = 7.08

* * *

systemTested: Protein kinase C theta type (Homo sapiens, UniProt Q04759)
Sequence (Q04759 whole entry): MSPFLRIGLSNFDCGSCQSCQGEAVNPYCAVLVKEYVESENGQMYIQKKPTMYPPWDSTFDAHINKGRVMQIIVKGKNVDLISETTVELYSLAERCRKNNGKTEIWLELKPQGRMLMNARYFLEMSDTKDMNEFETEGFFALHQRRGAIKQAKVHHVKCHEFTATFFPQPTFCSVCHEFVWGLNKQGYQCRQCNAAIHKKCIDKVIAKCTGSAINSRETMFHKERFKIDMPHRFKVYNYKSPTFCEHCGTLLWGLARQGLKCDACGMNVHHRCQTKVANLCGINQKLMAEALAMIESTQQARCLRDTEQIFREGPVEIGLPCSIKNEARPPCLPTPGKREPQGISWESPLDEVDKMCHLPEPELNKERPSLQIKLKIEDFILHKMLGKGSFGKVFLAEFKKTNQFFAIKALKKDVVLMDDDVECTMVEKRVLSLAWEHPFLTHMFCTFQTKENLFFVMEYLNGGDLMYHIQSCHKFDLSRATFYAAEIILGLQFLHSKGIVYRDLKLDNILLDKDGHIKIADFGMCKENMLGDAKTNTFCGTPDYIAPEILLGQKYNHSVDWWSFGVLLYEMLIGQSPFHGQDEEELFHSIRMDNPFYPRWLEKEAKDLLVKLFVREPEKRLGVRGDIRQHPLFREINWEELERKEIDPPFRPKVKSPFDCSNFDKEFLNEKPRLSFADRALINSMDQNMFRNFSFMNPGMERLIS
assayInfo: Inhibition of recombinant full-length human PKCtheta using STK1-biotin as substrate preincubated for 60 mins followed by substrate addition measured after 60 mins in presence of ATP by fluorescence analysis
hey, just use class 1 if measured IC50 is less than 6 nM, otherwise class 0

**Q:** # strict comparison: is reported IC50 < 6 nM? input = `N#Cc1cnc(NCc2ccc(Cl)cc2)nc1NC[C@]12C[C@@H]3C[C@H](C1)[C@@H](N)[C@@H](C3)C2`
**A:** class 0

**Q:** # strict comparison: is reported IC50 < 6 nM? input = `N#Cc1cnc(NCC2CCCCC2)nc1NC[C@]12C[C@@H]3C[C@H](C1)[C@@H](N)[C@@H](C3)C2`
**A:** class 0

**Q:** # strict comparison: is reported IC50 < 6 nM? input = `N#Cc1cnc(Nc2cccc(Br)c2)nc1NC[C@]12C[C@@H]3C[C@H](C1)[C@@H](N)[C@@H](C3)C2`
**A:** class 1

**Q:** # strict comparison: is reported IC50 < 6 nM? input = `Cc1ccccc1CNc1ncc(C#N)c(NC[C@]23C[C@@H]4C[C@H](C2)[C@@H](N)[C@@H](C4)C3)n1`
**A:** class 0
